# IC50 annotations
molecular target: KRAS G12D (Homo sapiens, UniProt P01116, G12D); construct: aa1-188 KRAS WT, HRAS WT, NRAS WT, or KRAS containing the G12D; test: HTRF nucleotide exchange assay, KRAS G12D; settings: HTRF nucleotide exchange assay (NEA), class symbols
Sequence (P01116 1-188 isoform P01116-2 G12D): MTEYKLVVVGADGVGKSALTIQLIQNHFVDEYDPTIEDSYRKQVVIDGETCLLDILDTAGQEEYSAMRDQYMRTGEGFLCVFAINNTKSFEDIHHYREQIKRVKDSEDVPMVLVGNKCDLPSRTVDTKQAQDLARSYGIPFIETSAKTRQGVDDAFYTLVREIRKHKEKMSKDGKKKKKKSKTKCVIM

Completed entries (count: 5):
| COMPOUND | IC50 |
| --- | --- |
| CCc1c(F)ccc2cc(O)cc(-c3c(C)c4nc(OC[C@@H]5CCN5)nc(N5CCOCC(C)(O)C5)c4c4cn(C)nc34)c12 (stereo partly drawn) | ≤ 10 nM |
| Cc1cc(N)nc(-c2cc3nc(OC[C@@]45CCCN4C[C@H](F)C5)nc(N4CCCn5nc(C(=O)N(C)C)cc5C4)c3c3cn(C)nc23)c1C(F)(F)F | 100 to 10000 nM |
| CCc1c(F)ccc2cc(O)cc(-c3c(F)c4nc(OCC5(CN6CC(C#N)C6)CC5)nc(N5CCOCC(C)(O)C5)c4c4cn(C)nc34)c12 (stereo not drawn) | ≤ 10 nM |
| CCc1c(F)ccc2cc(O)cc(-c3cc4nc(OC[C@@]56CCCN5C[C@H](F)C6)nc(N5CCOCC(O)(C(F)(F)F)C5)c4c4cn(C)nc34)c12 (stereo partly drawn) | 10 to 100 nM |
| C#Cc1c(F)ccc2cc(O)cc(-c3cc4nc(OC[C@@]56CCCN5C[C@H](F)C6)nc(N5CCCNCC5)c4c4cn(C)nc34)c12 (single isomer, unassigned) [Example 35] | 100 to 10000 nM |

Could you now look at the following compound, please?
**Q:** Answer with reported IC50 of CCc1c(F)ccc2cc(O)cc(-c3cc4nc(OC[C@@]56CCCN5C[C@H](F)C6)nc(N5CC6CCC(C5)N6CC(C)O)c4c4cn(C)nc34)c12 (stereo partly drawn) [Example 186]
**A:** 10 to 100 nM

Numbers sourced from patent US20260347364A1.
